Assay: Cell Viability - LYMP2-017 (AID 972);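 further: cells exposed to compound for 24 hours at 37 °C; nearly all actives have a fitted effect of over 55% in size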
Details: LYMP2-017 lymphoblastoid cell viability; series mostly up to 92.2 µM
Text: NIH Chemical Genomics Center [NCGC] NIH Molecular Libraries Screening Centers Network [MLSCN] National Institutes of Environmental Health Sciences [NIEHS] National Toxicology Program [NTP] We have developed a 1536-well cell-based assay for quantitative high throughput screening (qHTS) against a number of cell lines to determine in vitro cytotoxicity of small molecules. […] 8. Detection; Luminescence; Viewlux plate reader […]
Results filed as inconclusive are left out. Active and inactive are the calls of the source. The call rests on the fitted dose curve; in most records, active means well fitted cell-killing curve with a large enough effect; inconclusive means small, poorly fitted or top-dose-only effect; inactive means flat fitted curve, though single readings scatter.
Outcome codes: T = active, F = inactive

{"molecule": "Oc1ccccc1O", "cat": "F"}
{"molecule": "N=C1N=C(N)c2cc3ccccc3cc21", "cat": "T"}
{"molecule": "Nc1ccc(O)c(C(=O)O)c1", "cat": "F"}
{"molecule": "CCCOC(=O)c1ccc(O)cc1", "cat": "F"}
{"molecule": "CN1CCC[C@H]1c1cccnc1", "cat": "F"}
{"molecule": "CC(C)NCC(O)COc1cccc2ccccc12 (configuration not stated)", "cat": "F"}
{"molecule": "C#C[C@]1(O)CC[C@H]2[C@@H]3CCc4cc(O)ccc4[C@H]3CC[C@@]21C", "cat": "F"}
{"molecule": "Nc1ccc(O)c([N+](=O)[O-])c1", "cat": "F"}
{"molecule": "CN(C)c1ccc(N=NS(=O)(=O)O)cc1", "cat": "F"}
{"molecule": "O=c1cc(-c2ccccc2)oc2ccccc12", "cat": "F"}
{"molecule": "Nc1ccc([N+](=O)[O-])cc1O", "cat": "F"}
{"molecule": "S=c1[nH]c2ccccc2s1", "cat": "F"}

Hey, just so you know, these numbers are from PubChem BioAssay (NCATS).
